studyTarget: T1, soluble human CD3 epsilon chain (human, UniProt P07766 23-126)
T1 construct: also called CD3ε
T1 sequence (P07766 23-126 limits assumed): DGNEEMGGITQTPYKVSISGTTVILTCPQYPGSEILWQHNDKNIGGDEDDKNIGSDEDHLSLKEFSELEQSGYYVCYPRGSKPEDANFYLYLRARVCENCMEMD
testSummary: SPR
reportedProperty: pKd
One number for each entry, as −log10 of the molar value.

In the examples that follow, each entry is paired with its recorded pKd.
binder	observed
TR01H040-E22Hh/none-Hi-Kn010G3/L0201-k0 (antibody, V domains shown, one-arm) VH: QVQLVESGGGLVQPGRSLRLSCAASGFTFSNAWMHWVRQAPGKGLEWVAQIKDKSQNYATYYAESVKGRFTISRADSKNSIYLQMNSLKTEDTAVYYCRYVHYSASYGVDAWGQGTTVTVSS VL: DIVMTQSPLSLPVTPGEPASISCRSSQPPVHSNRNTYLHWYQQKPGQAPRLLIYKVSNRFSGVPDRFSGSGSGTDFTLKISRVEAEDVGVYYCGQGTQVPYTFGQGTKLEIKR	7.55
TR01H040-E22Hh/none-Hi-Kn010G3/L0223-k0 (antibody, V domains shown, one-arm) VH: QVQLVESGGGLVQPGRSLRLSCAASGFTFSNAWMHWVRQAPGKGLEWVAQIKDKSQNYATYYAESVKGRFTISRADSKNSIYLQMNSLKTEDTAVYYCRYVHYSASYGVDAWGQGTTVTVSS VL: DIVMTQSPLSLPVTPGEPASISCRSSQSPVHSNRNTYIHWYQQKPGQAPRLLIYKVSNRLSGVPDRFSGSGSGTDFTLKISRVEAEDVGVYYCYQGTQVPYTFGQGTKLEIK	8.09
TR01H061-E22Hh/none-Hi-Kn010G3/L0222-k0 (antibody, V domains shown, one-arm) VH: QVQLVESGGGLVQPGRSLRLSCAASGFTFSNAWMHWVRQAPGKGLEWVAQIKDKSQNYATYYAESVKGRFTISRADSKNSIYLQMNSLKTEDTAVYYCRYVHYAASYGVDIWGQGTTVTVSS VL: DIVMTQSPLSLPVTPGEPASISCRSSQSPVHSNRNTYIQWYQQKPGQAPRLLIYKVSNRFSGVPDRFSGSGSGTDFTLKISRVEAEDVGVYYCYQGTQVPYTFGQGTKLEIKR	7.73

What the record says about TR01H082-E22Hh/none-Hi-Kn010G3/L0266-k0 (antibody, V domains shown, one-arm) VH: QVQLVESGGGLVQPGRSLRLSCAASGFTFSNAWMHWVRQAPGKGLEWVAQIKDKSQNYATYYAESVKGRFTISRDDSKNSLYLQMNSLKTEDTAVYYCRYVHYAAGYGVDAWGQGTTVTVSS VL: DIVMTQSPLSLPVTPGEPASISCRSSQPPVHSNRNTYLHWYQQKPGQAPRLLIYKVSNRFSGVPDRFSGSGSGTDFTLKISRVEAEDVGVYYCVQGTQVPYTFGQGTKLEIK : pKd is 7.64
